Reference source: paper PMC2843614

pKd values for the compounds below.
# target desc: Con-anc (probable ancestral form of congerins)
# Construct: recombinant from plasmid pTV-Con-anc in Escherichia coli JM109; differs from ConI at 31 residues; purified by HCl-treated Sepharose 4B and HiTrap Q
# experiment summary: frontal affinity chromatography (FAC)
# Type: binding, synthetic construct
# recorded conditions: labelled compound (pyridylaminated sugar)
Lab note — pKd values are minus log10 of concentrations in M.

Would you please look over these solved cases?
compound	target desc	pKd
CC(=O)N[C@H]1[C@H]([C@H](O)[C@H](O)CO)OC(O[C@H]2[C@@H](O)[C@@H](CO)O[C@@H](O[C@@H]([C@H](O)[C@@H](O)CNc3ccccn3)[C@H](O)CO)[C@@H]2O)(C(=O)O)C[C@@H]1O (stereo partly shown) [compound 29]	Con-anc (probable ancestral form of congerins)	3.62
CC(=O)N[C@H]1[C@H](O[C@H]2[C@@H](O)[C@@H](CO)O[C@@H](O[C@@H]([C@H](O)[C@@H](O)CNc3ccccn3)[C@H](O)CO)[C@@H]2O)O[C@H](CO)[C@@H](O[C@@H]2O[C@H](CO)[C@H](O)[C@H](O)[C@H]2O)[C@@H]1O[C@@H]1O[C@@H](C)[C@@H](O)[C@@H](O)[C@@H]1O [compound 45, LNFP-III]	Con-anc (probable ancestral form of congerins)	3.77
CC(=O)N[C@H]1[C@H](O[C@H]2[C@@H](O)[C@@H](CO)O[C@@H](O[C@@H]([C@H](O)[C@@H](O)CNc3ccccn3)[C@H](O)CO)[C@@H]2O)O[C@H](CO)[C@@H](O[C@@H]2O[C@@H](C)[C@@H](O)[C@@H](O)[C@@H]2O)[C@@H]1O[C@@H]1O[C@H](CO)[C@H](O)[C@H](O)[C@H]1O[C@@H]1O[C@@H](C)[C@@H](O)[C@@H](O)[C@@H]1O [compound 46]	Con-anc (probable ancestral form of congerins)	4.36

# context switch: different compound, same pKd
Provide value of pKd for this record tested with Con-anc (probable ancestral form of congerins): CC(=O)N[C@H]1[C@H](O[C@H]2[C@@H](O)[C@@H](CO)O[C@@H](O[C@@H]([C@H](O)[C@@H](O)CNc3ccccn3)[C@H](O)CO)[C@@H]2O)O[C@H](CO)[C@@H](O[C@@H]2O[C@@H](C)[C@@H](O)[C@@H](O)[C@@H]2O)[C@@H]1O[C@@H]1O[C@H](CO)[C@H](O)[C@H](O)[C@H]1O [compound 44] 4.26
